# Tested on: COLO 205 colon
# PROTOCOL DESCRIPTION: NCI-60 one-dose screen, 48 h (100 = growth as untreated, 0 = no growth, -100 = all killed)
# CONDITION PARAMETERS: 10 µM unless noted
The panel holds about 83,000 compounds, 20% with a hit somewhere; the sample as a whole holds those more often.
# growth annotations
Output spec: scalar in %, unitless text.

Some entries whose results are on file:
{"MOLECULE": "CCOC(=O)[C@@H](C)C[C@H](Cc1ccccc1)NC(=O)c1nc([C@@H](C[C@H](C(C)C)N(C)C(=O)[C@@H](NC(=O)[C@H]2CCCCN2C)C(C)C)OC(C)=O)sc1CCOCc1ccccc1", "growth (%)": -70.9}
{"MOLECULE": "C#Cc1ccc2c(c1)C(c1ccccc1)=NCC(=O)N2C", "growth (%)": 15.8}
{"MOLECULE": "CCOP(=O)(NC[C@H]1O[C@](O)(CO)[C@@H](O)[C@@H]1O)OCC", "growth (%)": 102}
{"MOLECULE": "COc1cc([C@@H]2c3cc4c(cc3[C@H](OC(C)=O)[C@H]3COC(=O)[C@@H]23)OCO4)cc(OC)c1OC", "growth (%)": -75.8}

Query: I'm curious: which growth was measured for Clc1ccc(CSC(Cn2ccnc2)c2ccc(Cl)cc2Cl)cc1 (centres undefined) tested on COLO 205 colon?
Result: -55.2

Query: I'm curious: which growth was measured for O=C(Nc1ccc(O)cc1)C(Cl)(Cl)Cl tested on COLO 205 colon?
Result: 102

Query: I'm curious: which growth was measured for O=NNc1ccccn1 tested on COLO 205 colon?
Result: 95.8

Query: I'm curious: which growth was measured for O=C1C2C(C(=O)[N]1[Hg][c]1ccccc1)C1(Cl)C(Cl)=C(Cl)C2(Cl)C1(Cl)Cl (centres undefined) tested on COLO 205 colon?
Result: -96.5

Query: I'm curious: which growth was measured for Fc1c[c-]c(-c2ccccn2)c(F)c1.[CH3-].[Pt+2].c1ccc([PH+](c2ccccc2)c2ccccn2)cc1 tested on COLO 205 colon?
Result: -31.5

Each recorded value in this set is attributed to PubChem BioAssay (NCI).
